# measurement target: 11-beta-hydroxysteroid dehydrogenase type 2 (Rattus norvegicus) (UniProt P50233)
# Sequence (whole entry): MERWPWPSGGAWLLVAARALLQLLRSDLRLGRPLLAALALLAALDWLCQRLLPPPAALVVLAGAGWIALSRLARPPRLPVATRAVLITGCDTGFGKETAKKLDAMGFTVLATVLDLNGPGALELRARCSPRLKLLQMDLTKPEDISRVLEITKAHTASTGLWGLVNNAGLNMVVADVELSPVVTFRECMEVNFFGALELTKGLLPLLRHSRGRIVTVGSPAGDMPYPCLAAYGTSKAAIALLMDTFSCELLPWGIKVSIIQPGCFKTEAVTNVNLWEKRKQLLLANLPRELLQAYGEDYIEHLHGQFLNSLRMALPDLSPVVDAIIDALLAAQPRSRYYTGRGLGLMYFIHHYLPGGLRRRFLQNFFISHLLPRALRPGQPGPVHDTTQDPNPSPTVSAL
# measurement description: Inhibition of 11beta-HSD2 in rat kidney microsomes using [3H]-CORT as substrate assessed as formation of 11-DHC at 100 uM after 30 mins by radiometric analysis relative to control
# measurement conditions: Microsome
The following compounds are shown together with reported inhibition values.

Illustrative cases are given below, each with its answer.
[
  {
    "compound string": "O=C1/C(=C/c2cccc(C(F)(F)F)c2F)CC/C1=C\\c1cccc(C(F)(F)F)c1F",
    "measurement target": "11-beta-hydroxysteroid dehydrogenase type 2 (Rattus norvegicus) (UniProt P50233)",
    "result": "5%"
  },
  {
    "compound string": "CN(C)c1ccc(/C=C/C(=O)/C=C/c2ccc(N(C)C)cc2)cc1",
    "measurement target": "11-beta-hydroxysteroid dehydrogenase type 2 (Rattus norvegicus) (UniProt P50233)",
    "result": "13%"
  },
  {
    "compound string": "O=C1/C(=C/c2ccccc2Br)CC/C1=C\\c1ccccc1Br",
    "measurement target": "11-beta-hydroxysteroid dehydrogenase type 2 (Rattus norvegicus) (UniProt P50233)",
    "result": "22%"
  }
]

Shifting focus to the compound that follows.
Consider the compound shown here: C=CCOc1ccc(/C=C/C(=O)/C=C/c2ccc(OCC=C)cc2)cc1 What is its recorded inhibition?
16%
